Each record here notes measured viability, T/C.
Test system: LG0567-F671-PDC complex spheroids viability
method: Anticancer human tumor LG0567-F671-PDC patient-derived lung adenocarcinoma cell line growth inhibition [RAS]
measurement-conditions: second compound 0.316 µM; first compound 3.16 µM; active compounds read low
assay-metric: viability, T/C (%)

[[record]]
compound = "C[C@@H](NC(=O)c1ncnc(N)c1Cl)c1ncc(C(=O)Nc2cc(C(F)(F)F)c(Cl)cn2)s1 + C=CC(=O)N1CCN(c2nc(OCC3CCCN3C)nc3c(F)c(-c4nc(N)cc(C)c4C(F)(F)F)c(Cl)cc23)C(C)C1"
assay_metric = "viability, T/C"
numeric_readout = 22.2

[[record]]
compound = "Cc1nc(N2CCC3(CC2)COC(C)C3N)c(CO)nc1Sc1ccnc(N)c1Cl (stereo not given) + C#Cc1c(F)ccc2cc(O)cc(-c3ncc4c(N5CC6CCC(C5)N6)nc(OCC56CCCN5CC(F)C6)nc4c3F)c12"
assay_metric = "viability, T/C"
numeric_readout = 8.05

[[record]]
compound = "CC(Nc1ccc2c(c1)OCCn1cc(N3C(=O)OCC3C(F)F)nc1-2)C(N)=O (stereo not given) + C#Cc1c(F)ccc2cc(O)cc(-c3ncc4c(N5CC6CCC(C5)N6)nc(OCC56CCCN5CC(F)C6)nc4c3F)c12"
assay_metric = "viability, T/C"
numeric_readout = 28.4

[[record]]
compound = "CCC(CC)c1cc(NC2CCC(N)C2)n2nccc2n1 (stereo not given) + C#Cc1c(F)ccc2cc(O)cc(-c3ncc4c(N5CC6CCC(C5)N6)nc(OCC56CCCN5CC(F)C6)nc4c3F)c12"
assay_metric = "viability, T/C"
numeric_readout = 3.78

[[record]]
compound = "CC1(O)CCCC1n1c(=O)c(C(F)F)cc2cnc(NC3CCN(S(C)(=O)=O)CC3)nc21 (stereo not given) + C=CC(=O)N1CCN(c2nc(OCC3CCCN3C)nc3c(F)c(-c4nc(N)cc(C)c4C(F)(F)F)c(Cl)cc23)C(C)C1"
assay_metric = "viability, T/C"
numeric_readout = 15.8


====

Consider the following molecules and their measured viability, T/C readings.
System: LG0567-F671-PDC complex spheroids viability
method: Anticancer human tumor LG0567-F671-PDC cell line growth inhibition [RAS];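 note: spheroids exposed to compound for seven days before readout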
measurement-conditions: second compound 0.03 µM; first compound 0.1 µM; active compounds read low
assay-metric: viability, T/C (%)

[[record]]
molecule = "CC(C)n1nc(-c2ccc3oc(N)nc3c2)c2c(N)ncnc21 + CCn1c(-c2cccnc2C(C)OC)c2c3cc(ccc31)N1CCOC(CC(NC(=O)C(C(C)C)N(C)C(=O)C3(F)CCN(C(=O)C#CC(C)(C)N(C)C)CC3)C(=O)N3CCCC(N3)C(=O)OCC(C)(C)C2)C1"
system_under_test = "LG0567-F671-PDC complex spheroids viability"
units_text = "%"
numeric_readout = 11.5

[[record]]
molecule = "C=CC(=O)Nc1cc(Nc2nccc(-c3cn(C)c4ccccc34)n2)c(OC)cc1N(C)CCN(C)C + CCn1c(-c2cc(N3CCN(C)CC3)cnc2C(C)OC)c2c3cc(ccc31)-c1csc(n1)CC(NC(=O)C1CC1C)C(=O)N1CCCC(N1)C(=O)OCC(C)(C)C2"
system_under_test = "LG0567-F671-PDC complex spheroids viability"
units_text = "%"
numeric_readout = 2.59

[[record]]
molecule = "CCN1CCN(Cc2ccc(Nc3ncc(F)c(-c4cc(F)c5nc(C)n(C(C)C)c5c4)n3)nc2)CC1 + CCn1c(-c2cccnc2C(C)OC)c2c3cc(ccc31)N1CCOC(CC(NC(=O)C(C(C)C)N(C)C(=O)C3(F)CCN(C(=O)C#CC(C)(C)N(C)C)CC3)C(=O)N3CCCC(N3)C(=O)OCC(C)(C)C2)C1"
system_under_test = "LG0567-F671-PDC complex spheroids viability"
units_text = "%"
numeric_readout = 13.9

[[record]]
molecule = "CC(C)NCC(C(=O)N1CCN(c2ncnc3c2C(C)CC3O)CC1)c1ccc(Cl)cc1 (centres undefined) + CCn1c(-c2cc(N3CCN(C)CC3)cnc2C(C)OC)c2c3cc(ccc31)-c1csc(n1)CC(NC(=O)C1CC1C)C(=O)N1CCCC(N1)C(=O)OCC(C)(C)C2"
system_under_test = "LG0567-F671-PDC complex spheroids viability"
units_text = "%"
numeric_readout = 3.99

[[record]]
molecule = "C[C@@H](NC(=O)c1ncnc(N)c1Cl)c1ncc(C(=O)Nc2cc(C(F)(F)F)c(Cl)cn2)s1 + CCn1c(-c2cc(N3CCN(C)CC3)cnc2C(C)OC)c2c3cc(ccc31)-c1csc(n1)CC(NC(=O)C1CC1C)C(=O)N1CCCC(N1)C(=O)OCC(C)(C)C2"
system_under_test = "LG0567-F671-PDC complex spheroids viability"
units_text = "%"
numeric_readout = 5.26

[[record]]
molecule = "C=CC(=O)N1CCN(c2nc(OCC3CCCN3C)nc3c(F)c(-c4nc(N)cc(C)c4C(F)(F)F)c(Cl)cc23)C(C)C1 (centres undefined) + CCn1c(-c2cc(N3CCN(C)CC3)cnc2C(C)OC)c2c3cc(ccc31)-c1csc(n1)CC(NC(=O)C1CC1C)C(=O)N1CCCC(N1)C(=O)OCC(C)(C)C2"
system_under_test = "LG0567-F671-PDC complex spheroids viability"
units_text = "%"
numeric_readout = 3.48

[[record]]
molecule = "CCN1CCN(Cc2ccc(Nc3ncc(F)c(-c4cc(F)c5nc(C)n(C(C)C)c5c4)n3)nc2)CC1 + CCn1c(-c2cc(N3CCN(C)CC3)cnc2C(C)OC)c2c3cc(ccc31)-c1csc(n1)CC(NC(=O)C1CC1C)C(=O)N1CCCC(N1)C(=O)OCC(C)(C)C2"
system_under_test = "LG0567-F671-PDC complex spheroids viability"
units_text = "%"
numeric_readout = 4.09

[[record]]
molecule = "CC1(O)CCCC1n1c(=O)c(C(F)F)cc2cnc(NC3CCN(S(C)(=O)=O)CC3)nc21 (centres undefined) + CCn1c(-c2cccnc2C(C)OC)c2c3cc(ccc31)N1CCOC(CC(NC(=O)C(C(C)C)N(C)C(=O)C3(F)CCN(C(=O)C#CC(C)(C)N(C)C)CC3)C(=O)N3CCCC(N3)C(=O)OCC(C)(C)C2)C1"
system_under_test = "LG0567-F671-PDC complex spheroids viability"
units_text = "%"
numeric_readout = 15.2

[[record]]
molecule = "C=CC(=O)Nc1cc(Nc2nccc(-c3cn(C)c4ccccc34)n2)c(OC)cc1N(C)CCN(C)C + CCn1c(-c2cccnc2C(C)OC)c2c3cc(ccc31)N1CCOC(CC(NC(=O)C(C(C)C)N(C)C(=O)C3(F)CCN(C(=O)C#CC(C)(C)N(C)C)CC3)C(=O)N3CCCC(N3)C(=O)OCC(C)(C)C2)C1"
system_under_test = "LG0567-F671-PDC complex spheroids viability"
units_text = "%"
numeric_readout = 7.87


From: PubChem BioAssay AID2060889
